experiment: CREB reporter modulators without forskolin, primary screen, cell-based, PC12, CRE-LacZ reporter, unstimulated (AID 1145); settings: no forskolin, luminescence, 4.5 h, higher = more signal, called active from +8 up or from −8 down
Values of z-score greater than or equal to 0.4 map to T; values below map to F.

compound=O=C1c2ccccc2[C@](Cc2ccccc2I)(C(=O)NCc2ccccc2)[C@H](c2ccc(CO)cc2)N1Cc1ccccc1C(F)(F)F category=F
compound=[N-]=[N+]=NCc1ccccc1C[C@]1(C(=O)N2CCCCC2)N=C(c2ccc(OCCCO)cc2)O[C@H]1c1ccccc1CN=[N+]=[N-] category=T
compound="N#Cc1ccc(NN2C(C(O)c3ccc(I)cc3)C=CC3C(=O)N(c4ccccc4)C(=O)C32)cc1 (configuration not stated)" category=F
compound=Cc1ccc(S[C@]2(C(=O)NCCCN(C)C)CC(=O)N(Cc3ccccc3)[C@@H]2c2ccc(CO)cc2I)cc1 category=T
compound=CO[C@H]1COC(=O)[C@H](C)NC(=O)CC=C[C@@H](C)[C@H](NS(=O)(=O)c2ccc(C)cc2)COC(=O)[C@@H](OCc2ccccc2)C=C[C@@H]1C category=T
compound=C=C[C@H](OC)[C@@H](OC(=O)Nc1ccc(SC)cc1)c1ccc(O)c(F)c1 category=T
compound=COc1cc2c(cc1OC)CN(C(=O)[C@H]1[C@@H]3C(=O)O[C@@H](c4ccccc4)[C@@H](c4ccccc4)N3[C@@H](c3ccc(O)cc3)[C@]13C(=O)Nc1ccc(C#CC4(O)CCCCCC4)cc13)CC2 category=T
